B1: C8orf76 (parent)
chain: LYLQLAICSSLQNLEKTIFCLQKL

Variants of: B1
Procedure Text: protein stability index of a GFP-peptide fusion (GPS, HEK-293T) (PSI 1-6); higher = more stable;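 further: lentivirally expressed fusions sorted by FACS into six bins by GFP to DsRed ratio, PSI derived from sequencing read proportions per bin multiplied by bin number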
Recorded Conditions: c terminus: a fixed tail appended
Could you please report measured protein stability index for the items listed next?
Answers are plain numbers.

Some entries whose results are on file:
[[record]]
residue_change = "C20A"
parameter = "protein stability index"
observed = 2.85

[[record]]
residue_change = "C20F"
parameter = "protein stability index"
observed = 2.83

[[record]]
residue_change = "L5W"
parameter = "protein stability index"
observed = 2.82

[[record]]
residue_change = "L24E"
parameter = "protein stability index"
observed = 1.75

[[record]]
residue_change = "T17L"
parameter = "protein stability index"
observed = 4


State the recorded protein stability index for every item in the following list.
1. C8S
2. F19E
3. N13I
4. L21E

Result block:
[3.03, 1.81, 1.93, 1.42]

State the recorded protein stability index for every item in the following list.
1. L1N
2. L1P

Result block:
3.07
3.08
